Data provenance: paper PMC11982978

- System Tested: ERK2 R133K (Mus musculus, UniProt P63085, R133K)
- Construct: His6; made in house; host or cells: E. coli BL21(DE3), co-expressed with GST-MEK1ΔN3
- Sequence (P63085 whole entry R133K): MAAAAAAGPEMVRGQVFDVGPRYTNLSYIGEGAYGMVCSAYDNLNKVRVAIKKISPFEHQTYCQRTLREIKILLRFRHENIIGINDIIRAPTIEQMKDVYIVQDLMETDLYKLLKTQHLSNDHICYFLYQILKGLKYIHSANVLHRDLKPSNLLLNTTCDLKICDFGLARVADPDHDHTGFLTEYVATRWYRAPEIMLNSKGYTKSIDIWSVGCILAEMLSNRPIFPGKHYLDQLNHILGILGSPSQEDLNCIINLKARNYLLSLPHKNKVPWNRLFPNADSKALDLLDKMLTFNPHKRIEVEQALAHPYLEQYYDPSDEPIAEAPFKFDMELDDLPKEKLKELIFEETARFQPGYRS
- Assay Notes: Competitive peptide kinase assay (D-peptide inhibition), ERK2 R133K
- Format: biochemical
- Condition Info: Table S1, 5 μM reporter peptide, 10 nM ERK2, 10 μM ATP, three independent experiments
Peptide text beside a SMILES is read from it.
Experimental Endpoint: IC50 (µM)
Please state the figure in µM; there is no need to write the unit.

Query: Which value of IC50 has been reported for CC(C)C[C@H](NC(=O)[C@@H](NC(=O)[C@H](CC(C)C)NC(=O)[C@H](CO)NC(=O)[C@@H](NC(=O)[C@H](CC(N)=O)NC(=O)[C@H](CO)NC(=O)CNC(=O)[C@H](CCCNC(=N)N)NC(=O)[C@H](CCCNC(=N)N)NC(=O)[C@H](CCC(=O)O)NC(=O)[C@H](CCC(N)=O)NC(=O)[C@H](CC(C)C)NC(=O)CNC(=O)[C@H](C)NC(=O)[C@@H](N)Cc1ccc(O)cc1)C(C)C)[C@@H](C)O)C(=O)O [PTPN5] (H-YAGLQERRGSNVSLTL-OH) in the records?
Result: 760
